Parameter pKi, tested on Mu-type opioid receptor (Rattus norvegicus, UniProt P33535), listed per item.
Sequence (P33535 whole entry): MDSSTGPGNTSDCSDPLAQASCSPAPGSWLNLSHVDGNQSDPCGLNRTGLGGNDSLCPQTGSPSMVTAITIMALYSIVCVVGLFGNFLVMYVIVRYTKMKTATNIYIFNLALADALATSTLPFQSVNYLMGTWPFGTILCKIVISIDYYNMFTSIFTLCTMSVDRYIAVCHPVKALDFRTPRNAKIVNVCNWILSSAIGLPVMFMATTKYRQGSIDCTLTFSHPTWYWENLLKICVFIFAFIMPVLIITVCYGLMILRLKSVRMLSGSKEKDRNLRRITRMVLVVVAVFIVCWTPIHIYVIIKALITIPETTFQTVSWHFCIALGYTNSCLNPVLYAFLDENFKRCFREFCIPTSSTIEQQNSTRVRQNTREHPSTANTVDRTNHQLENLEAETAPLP
Quick note: pKi values are minus log10 of concentrations in mol/L.

NC(=O)[C@@H]1CC(=O)NCCC[C@@H](NC(=O)[C@@H](N)Cc2ccc(O)cc2)C(=O)N[C@@H](Cc2ccccc2)C(=O)N[C@H](C(N)=O)CC(=O)NCCC[C@@H](NC(=O)[C@@H](N)Cc2ccc(O)cc2)C(=O)N[C@@H](Cc2ccccc2)C(=O)N1; 7.59

Item: `CC(C)C[C@@H]1NC(=O)[C@H](NC(=O)[C@@H](N)Cc2ccc(O)cc2)CCCNC(=O)C[C@@H](C(N)=O)NC1=O` | System: Mu-type opioid receptor (Rattus norvegicus, UniProt P33535) | pKi: 5.17

Item: `NC(=O)[C@@H]1CCC(=O)NCCCC[C@@H](NC(=O)[C@@H](N)Cc2ccc(O)cc2)C(=O)N[C@@H](Cc2ccccc2)C(=O)N1` | System: Mu-type opioid receptor (Rattus norvegicus, UniProt P33535) | pKi: 8.84

Item: `NC(=O)[C@@H]1CCC(=O)NCCC[C@@H](NC(=O)[C@@H](N)Cc2ccc(O)cc2)C(=O)NCC(=O)N1` | System: Mu-type opioid receptor (Rattus norvegicus, UniProt P33535) | pKi: 5.75

Item: `NC(=O)[C@@H]1CCCCNC(=O)CC[C@@H](NC(=O)[C@@H](N)Cc2ccc(O)cc2)C(=O)N[C@@H](Cc2ccccc2)C(=O)N1` | System: Mu-type opioid receptor (Rattus norvegicus, UniProt P33535) | pKi: 9.00

Item: `NC(=O)[C@@H]1CCCNC(=O)C[C@@H](NC(=O)[C@@H](N)Cc2ccc(O)cc2)C(=O)N[C@@H](Cc2ccccc2)C(=O)N[C@H](C(N)=O)CCCNC(=O)C[C@@H](NC(=O)[C@@H](N)Cc2ccc(O)cc2)C(=O)N[C@@H](Cc2ccccc2)C(=O)N1` | System: Mu-type opioid receptor (Rattus norvegicus, UniProt P33535) | pKi: 7.07

---

organism: Cavia porcellus; assay: Tested for inhibition of electrically evoked contractions of the guinea pig ileum(GPI).; type: functional
observed_property: IC50 (nM)
Hi! Could you send only the number? It should be in nM, unit omitted.

NC(=O)[C@@H]1CCCNC(=O)C[C@@H](NC(=O)[C@@H](N)Cc2ccc(O)cc2)C(=O)N[C@@H](Cc2ccccc2)C(=O)N[C@H](C(N)=O)CCCNC(=O)C[C@@H](NC(=O)[C@@H](N)Cc2ccc(O)cc2)C(=O)N[C@@H](Cc2ccccc2)C(=O)N1; 1160

// next item, IC50 requested
Record `NC(=O)[C@@H]1CC(=O)NCCC[C@@H](NC(=O)[C@@H](N)Cc2ccc(O)cc2)C(=O)N[C@@H](Cc2ccccc2)C(=O)N[C@H](C(N)=O)CC(=O)NCCC[C@@H](NC(=O)[C@@H](N)Cc2ccc(O)cc2)C(=O)N[C@@H](Cc2ccccc2)C(=O)N1` , field IC50: 111

---

organism: Cavia porcellus; experiment: Tested for inhibition of electrically evoked contractions of the guinea pig ileum(GPI).; type: functional
Where a SMILES comes first, the peptide text is derived from it. Bridges are numbered along the chain shown (N, C = ends). [ ]: non-standard residue; d: D form. Orn = NCCC[C@H](N)C(=O)O
observed_property: IC50 (nM)
Hi! Could you send only the number? It should be in nM, unit omitted.

Record `NC(=O)[C@@H]1CCC(=O)NCCC[C@@H](NC(=O)[C@@H](N)Cc2ccc(O)cc2)C(=O)NCC(=O)N1` , field IC50: 8750

Record `NC(=O)[C@@H]1CCC(=O)NCCCC[C@@H](NC(=O)[C@@H](N)Cc2ccc(O)cc2)C(=O)N[C@@H](Cc2ccccc2)C(=O)N1` , field IC50: 2.93

Record NC(=O)[C@@H]1CCCNC(=O)C[C@@H](NC(=O)[C@@H](N)Cc2ccc(O)cc2)C(=O)N[C@@H](Cc2ccccc2)C(=O)N1 (H-Y[dD]F[Orn]-NH2; lactam 2-4) , field IC50: 522

Record `CC(C)C[C@@H]1NC(=O)[C@H](NC(=O)[C@@H](N)Cc2ccc(O)cc2)CCCNC(=O)C[C@@H](C(N)=O)NC1=O` , field IC50: 5410

Record `NC(=O)[C@@H]1CCCCNC(=O)CC[C@@H](NC(=O)[C@@H](N)Cc2ccc(O)cc2)C(=O)N[C@@H](Cc2ccccc2)C(=O)N1` , field IC50: 7.99

---

Listed below: Ki values for each entry.
target: Delta-type opioid receptor (Rattus norvegicus); experiment: Displacement of [3H]DSLET from Opioid receptor delta 1 from rat brain homogenate; assay type: tissue-based
Hi! Could you send only the number? It should be in µM, unit omitted.

Record excerpt, results attached:
NC(=O)[C@@H]1CC(=O)NCCC[C@@H](NC(=O)[C@@H](N)Cc2ccc(O)cc2)C(=O)N[C@@H](Cc2ccccc2)C(=O)N[C@H](C(N)=O)CC(=O)NCCC[C@@H](NC(=O)[C@@H](N)Cc2ccc(O)cc2)C(=O)N[C@@H](Cc2ccccc2)C(=O)N1; 0.0422
NC(=O)[C@@H]1CCC(=O)NCCC[C@@H](NC(=O)[C@@H](N)Cc2ccc(O)cc2)C(=O)NCC(=O)N1; 4.99

// next item, Ki requested
Record `NC(=O)[C@@H]1CCC(=O)NCCCC[C@@H](NC(=O)[C@@H](N)Cc2ccc(O)cc2)C(=O)N[C@@H](Cc2ccccc2)C(=O)N1` , field Ki: 0.00436

---

target: Delta-type opioid receptor (Rattus norvegicus, UniProt P33533); assay: Displacement of [3H]DSLET from Opioid receptor delta 1 from rat brain homogenate
Sequence (P33533 whole entry): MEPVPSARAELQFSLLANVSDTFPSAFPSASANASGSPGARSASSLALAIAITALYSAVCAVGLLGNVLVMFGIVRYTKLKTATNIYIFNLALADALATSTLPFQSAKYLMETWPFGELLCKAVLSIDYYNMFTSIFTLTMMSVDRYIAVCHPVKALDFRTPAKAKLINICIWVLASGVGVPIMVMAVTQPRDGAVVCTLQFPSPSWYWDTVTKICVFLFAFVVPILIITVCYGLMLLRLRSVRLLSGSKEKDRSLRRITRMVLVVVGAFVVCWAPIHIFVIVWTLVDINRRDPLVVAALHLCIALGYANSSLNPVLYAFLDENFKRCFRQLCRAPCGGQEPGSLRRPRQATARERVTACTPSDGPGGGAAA
Listed below: Ki values for each entry.
Hi! Could you send only the number? It should be in nM, unit omitted.

NC(=O)[C@@H]1CCCNC(=O)C[C@@H](NC(=O)[C@@H](N)Cc2ccc(O)cc2)C(=O)N[C@@H](Cc2ccccc2)C(=O)N[C@H](C(N)=O)CCCNC(=O)C[C@@H](NC(=O)[C@@H](N)Cc2ccc(O)cc2)C(=O)N[C@@H](Cc2ccccc2)C(=O)N1; 129
NC(=O)[C@@H]1CCCCNC(=O)CC[C@@H](NC(=O)[C@@H](N)Cc2ccc(O)cc2)C(=O)N[C@@H](Cc2ccccc2)C(=O)N1; 49.3

Record `CC(C)C[C@@H]1NC(=O)[C@H](NC(=O)[C@@H](N)Cc2ccc(O)cc2)CCCNC(=O)C[C@@H](C(N)=O)NC1=O` , field Ki: 8160

---

organism: Mus musculus; assay: Tested for inhibition of electrically evoked contractions of the mouse vas deferens(MVD).; assay type: functional
Where a SMILES comes first, the peptide text is derived from it. Bridges are numbered along the chain shown (N, C = ends). [ ]: non-standard residue; d: D form. Orn = NCCC[C@H](N)C(=O)O
Threshold-based label: IC50 under 100 nM gives Satisfied, IC50 not under 100 nM gives Not satisfied.

NC(=O)[C@@H]1CCC(=O)NCCCC[C@@H](NC(=O)[C@@H](N)Cc2ccc(O)cc2)C(=O)N[C@@H](Cc2ccccc2)C(=O)N1; Satisfied
CC(C)C[C@@H]1NC(=O)[C@H](NC(=O)[C@@H](N)Cc2ccc(O)cc2)CCCNC(=O)C[C@@H](C(N)=O)NC1=O; Not satisfied
NC(=O)[C@@H]1CCCNC(=O)C[C@@H](NC(=O)[C@@H](N)Cc2ccc(O)cc2)C(=O)N[C@@H](Cc2ccccc2)C(=O)N1 (H-Y[dD]F[Orn]-NH2; lactam 2-4); Not satisfied
NC(=O)[C@@H]1CCCNC(=O)C[C@@H](NC(=O)[C@@H](N)Cc2ccc(O)cc2)C(=O)N[C@@H](Cc2ccccc2)C(=O)N[C@H](C(N)=O)CCCNC(=O)C[C@@H](NC(=O)[C@@H](N)Cc2ccc(O)cc2)C(=O)N[C@@H](Cc2ccccc2)C(=O)N1; Not satisfied

Okay, now this compound:
Problem: # strict comparison: is reported IC50 < 100 nM? input = `NC(=O)[C@@H]1CCC(=O)NCCC[C@@H](NC(=O)[C@@H](N)Cc2ccc(O)cc2)C(=O)NCC(=O)N1`
Solution: Not satisfied
